Values compiled from PubChem BioAssay.

# MEASUREMENT NOTES: blockers of DNA damage checkpoint Chk1 activation – imaging, HeLa, hydroxyurea, phospho-Chk1 nuclear intensity, primary screen (AID 1187); also: test concentration not given here
# ASSAY CONDITIONS: hydroxyurea-induced phospho-Chk1 immunofluorescence imaging, higher = more signal
Attribute: z-score
Give your answer as a number; write no unit.

Previously resolved entries follow.
COMPOUND	z-score
COC(=O)[C@H](Cc1ccccc1)N1CC2=CCCC=C[C@@H]2[C@H]1[C@H](O)Cc1ccccc1	-0.685
C=C1C(=O)C=C2CN(C(=O)c3ccccc3)[C@@](Cc3ccc(OC)cc3)(C(=O)OC)[C@@H]12	0.354
C=CC[C@]1(C(=O)NCC(O)CO)COC(c2ccc(OCCCO)cc2)=N1 (stereo not given in full)	-0.553
CC(C)(C)OC(=O)CC[C@]1(C(=O)NCC(O)CO)N=C(c2ccc(OCCCO)cc2)O[C@H]1c1ccccc1N=[N+]=[N-] (stereo not given in full)	0.259
C=CCOC(=O)[C@@H]1[C@H]2C(=O)O[C@H](c3ccccc3)[C@H](c3ccccc3)N2[C@H](c2ccc(OCCOC(=O)[C@H]3C[C@H]4C(=O)N5CCC[C@H]5C(=O)N4[C@H]3c3cccc(OCCO)c3)cc2)[C@@]12C(=O)Nc1ccc(I)cc12	-0.434
O=C1NC(=O)C2C1C=CC(C(O)c1ccc(B(O)O)cc1)N2Nc1ccc(Cl)cc1Cl (stereo not given)	0.367

In plain terms, C[N+](C)(C)CCCC[C@@H]1NC(=O)[C@H]2C[C@@H](C(=O)NCCCCCNC(=O)CS)[C@@H](c3cccc(OCCO)c3)N2C1=O has a documented z-score of 0.164

In plain terms, [N-]=[N+]=Nc1ccccc1[C@@H]1OC(c2ccc(OCCCO)cc2)=N[C@]1(CCS(=O)(=O)c1ccccc1)C(=O)NCC(O)CO (stereo not given in full) has a documented z-score of 0.225

In plain terms, COC(=O)[C@@]1(Cc2ccccc2)[C@H]2c3cc(C(=O)N(C)C)n(Cc4ccc(C(F)(F)F)nc4)c3C[C@H]2CN1C(=O)c1ccccc1 has a documented z-score of 0.0603

In plain terms, O=C(N1CCOCC1)[C@@]1(Cc2ccccc2)COC(c2ccc(OCCCO)cc2)=N1 has a documented z-score of -0.504

In plain terms, COC(=O)[C@]1(Cc2ccccc2)N=C(c2ccc(OCCCO)cc2)O[C@@H]1c1ccccc1CN=[N+]=[N-] has a documented z-score of -0.631

In plain terms, CCCC[C@H]1C[C@@H]1[C@@H]1N(C(C)=O)[C@H](c2cccc(OC)c2)CC12CC2 has a documented z-score of 0.638

In plain terms, CCCC=C(CCC)[C@@H](NC(=O)c1ccc(C(F)(F)F)cc1)c1ccc(C(F)(F)F)cc1 has a documented z-score of -0.377

In plain terms, O=C1NC(=O)C2C1C=CC(C(O)c1ccc([N+](=O)[O-])cc1)N2Nc1ccccn1 (stereo not given) has a documented z-score of -0.347

In plain terms, COCCOC(=O)N1C(=O)[C@@]2(c3cc(C#Cc4ccc(OC)cc4)ccc31)[C@H](c1ccc(OCCO)cc1)N1[C@H](c3ccccc3)[C@H](c3ccccc3)OC(=O)[C@H]1[C@@H]2C(=O)NC[C@H](O)c1ccccc1 has a documented z-score of -0.0275
